Just for reference, PubChem BioAssay (Tox21) is where these values come from.

# MEASUREMENT_PROTOCOL: qHTS assay to identify small molecule agonists of the estrogen related receptor signaling pathway with the pleiotropic PPARgamma coactivator (PGC) (AID 1224823)
# RECORDED_CONDITIONS: ERR/PGC reporter cell line, luciferase agonist mode; series mostly up to 46.1 µM
# Experimental: National Center for Advancing Translational Sciences [NCATS] NIH Chemical Genomics Center [NCGC] U.S. Environmental Protection Agency [EPA] National Institutes of Environmental Health Sciences [NIEHS] National Toxicology Program [NTP] […] The PGC/ERR cells were dispensed at 2,000 cells/5 ul/well in 1536-well white plates using a Multidrop dispenser. […] After 30 min incubation at room temperature, the luminescence intensity in the plates was measured using a ViewLux plate reader.
Results filed as inconclusive are left out. Calls of active or inactive are those of the source. Calls come from the whole dose curve; as a rule, active = well fitted activation curve with a large enough effect in the repeat runs; inconclusive = weak or mixed curves; inactive = no such curve, though single readings can be large or run the other way.
Classes used: active, inactive

>>> category_label("CCS(=O)(=O)Nc1cccc(C(=C2CCCCC2)c2cnc[nH]2)c1")
"inactive"
>>> category_label("CNCCc1c[nH]c2ccc(O)cc12")
"inactive"
>>> category_label("C[C@@H](N)Cc1cnc[nH]1")
"inactive"
>>> category_label("O=C1CCCN1CC#CCN1CCCC1")
"inactive"
>>> category_label("CCN1C[C@@]2(COC)C3[C@@H](OC)C4[C@H]1C3([C@@H]1C[C@@]3(O)[C@H](OC(=O)c5ccccc5)[C@@H]1[C@]4(OC(C)=O)[C@@H](O)[C@@H]3OC)[C@H](OC)C[C@H]2O")
"inactive"
>>> category_label("C[C@@H]1O[C@@H](O[C@H]2C[C@@H](O)[C@]3(CO)[C@@H]4C(CC[C@]3(O)C2)[C@@]2(O)CC[C@H]([C@@H]3COC(=O)C3)[C@@]2(C)C[C@H]4O)[C@H](O)[C@H](O)[C@H]1O (stereo partly specified)")
"inactive"
>>> category_label("C[C@H](Cc1ccc2c(c1)OC(C(=O)O)(C(=O)O)O2)NC[C@H](O)c1cccc(Cl)c1")
"inactive"
>>> category_label("COC[C@H]1OC(=O)c2coc3c2[C@@]1(C)C1=C(C3=O)C2CCC(=O)[C@@]2(C)C[C@H]1OC(C)=O (stereo partly specified)")
"inactive"
>>> category_label("Nc1ncnc2c1ncn2[C@@H]1O[C@H](COP(=O)(O)CP(=O)(O)OP(=O)(O)O)C(O)[C@H]1O (stereo partly specified)")
"inactive"
>>> category_label("NC(=NCCC[C@H](N)C(=O)O)N[N+](=O)[O-]")
"inactive"
>>> category_label("CC(N)Cc1c[nH]c2ccc(OCc3cccs3)cc12 (stereo unspecified)")
"inactive"
>>> category_label("CCCN1CCc2cccc3c2[C@H]1Cc1ccc(O)c(O)c1-3")
"inactive"
>>> category_label("O=[N+]([O-])c1cc(O)c(O)c([N+](=O)[O-])c1")
"inactive"
>>> category_label("C[N+]1(C)CCOC(O)(c2ccc(-c3ccc(C4(O)C[N+](C)(C)CCO4)cc3)cc2)C1 (stereo unspecified)")
"inactive"
>>> category_label("CCCN(CCC)C1Cc2cc(OC)c(OC)cc2C1")
"inactive"
>>> category_label("CCCCCCCCCCCCCC(=O)O[C@@H]1[C@@H](C)[C@@]2(O)[C@@H](C=C(CO)C[C@@]3(O)C(=O)C(C)=C[C@@H]23)C2C(C)(C)[C@@]21OC(C)=O (stereo partly specified)")
"active"
>>> category_label("C[N+]1(C)CCN(c2ccccc2)CC1")
"inactive"
>>> category_label("CP(=O)(O)C1=CCNCC1")
"inactive"
>>> category_label("CCCn1c(=O)c2[nH]c(C3CCCC3)nc2n(CCCOC(=O)c2ccc(S(=O)(=O)F)cc2)c1=O")
"inactive"
>>> category_label("C[N+]1(C)CCC(OC(=O)C(c2ccccc2)c2ccccc2)CC1")
"inactive"
>>> category_label("N=C(N)c1ccc(CS(=O)(=O)F)cc1")
"inactive"
>>> category_label("Nc1cc2c(ncn2CCOCP(=O)(O)O)c(=O)[nH]1")
"inactive"
>>> category_label("O=c1ccc2[nH]cc(C3=CCNCC3)c2[nH]1")
"inactive"
>>> category_label("CC(C)[C@H]1CN[C@H](C(=O)O)[C@H]1CC(=O)O")
"inactive"
>>> category_label("C[C@@H]1O[C@H](C[N+](C)(C)C)C[C@H]1O")
"inactive"
>>> category_label("CN(C(=O)Cc1ccc(Cl)c(Cl)c1)C(CN1CCCC1)c1cccc(OCC(=O)O)c1 (stereo unspecified)")
"inactive"
>>> category_label("CC(=O)c1c(O)c(C)c(O)c(Cc2c(O)c3c(c(C(=O)/C=C/c4ccccc4)c2O)OC(C)(C)C=C3)c1O")
"inactive"
>>> category_label("CC(C)CC(NP(=O)(O)O[C@@H]1O[C@@H](C)[C@H](O)[C@@H](O)[C@H]1O)C(=O)NC(Cc1c[nH]c2ccccc12)C(=O)O (stereo partly specified)")
"inactive"
>>> category_label("O=P(O)(O)C(Cl)(Cl)P(=O)(O)O")
"inactive"
>>> category_label("NC(=O)c1ccc(OCC(O)CN2CC=C(c3ccc(F)cc3)CC2)cc1 (stereo unspecified)")
"inactive"
>>> category_label("CNc1ccc2oc(C[C@H]3O[C@@]4(CC[C@H]3C)O[C@H]([C@H](C)C(=O)c3ccc[nH]3)[C@H](C)C[C@H]4C)nc2c1C(=O)O")
"inactive"
>>> category_label("C[C@H](N)Cc1cccc(C(F)(F)F)c1")
"inactive"
>>> category_label("CC[C@@]1(O)C(=O)OCc2c1cc1n(c2=O)Cc2cc3ccccc3nc2-1")
"inactive"
>>> category_label("Cc1cc([C@@H]2CCCN2C)on1")
"inactive"
>>> category_label("CCN(CC)c1ncnc2c1ncn2[C@@H]1O[C@H](COP(=O)(O)OP(=O)(O)C(Br)(Br)P(=O)(O)O)[C@@H](O)[C@H]1O")
"inactive"
>>> category_label("NC(CCP(=O)(O)O)C(=O)O (stereo unspecified)")
"inactive"
>>> category_label("CN1CC[C@@]2(C)c3cc(OC(=O)Nc4ccccc4)ccc3N(C)[C@@H]12")
"inactive"
>>> category_label("NCCc1ccc(S(=O)(=O)F)cc1")
"inactive"
>>> category_label("CCCN1CCC[C@H](c2cccc(O)c2)C1")
"inactive"
>>> category_label("COc1ccc2[nH]cc(CCN)c2c1")
"inactive"
>>> category_label("CC(N)[C@H](O)c1ccc(O)c(O)c1 (stereo partly specified)")
"inactive"
